B1: Azoarcus group I ribozyme (parent)
chain: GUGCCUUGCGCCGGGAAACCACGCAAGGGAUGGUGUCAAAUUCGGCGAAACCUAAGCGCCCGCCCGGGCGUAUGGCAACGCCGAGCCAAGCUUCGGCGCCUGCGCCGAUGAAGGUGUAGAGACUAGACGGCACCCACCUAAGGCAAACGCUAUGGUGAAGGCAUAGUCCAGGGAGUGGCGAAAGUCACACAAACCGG

Variants of: B1
test-protocol: reverse-splicing fitness (ratio to wild type); higher = more active; in vitro selection; Mg2+ level not given
Kindly supply the reported reverse-splicing fitness values for the records listed here.
Keep it simple and answer with nothing but the number.

Output reverse-splicing fitness of A145C C169U U176C
0.156

Tell me its reverse-splicing fitness given A111U A145G C150G as the entry.
0.359

Specify measured reverse-splicing fitness for C82G A111G C150A U176A .
0.0337

// fetch reverse-splicing fitness given entry C82G A111G A120G C150G C169A U176A
0.0118

Report measured reverse-splicing fitness; entry is A111C A120G A145U C150U C169G U176A
0.0211

Specify measured reverse-splicing fitness for A111G A120G A145C C169G U176G .
0.00658

Report reverse-splicing fitness, nothing else, for this variant: C82G A111C C150U U176A
0.0699

Give reported reverse-splicing fitness value for A111C A145C U176C
0.372

Fill in reverse-splicing fitness for record C82A A111U A120C A145U C150G C169U U176A
0.00711

Provide one value: measured reverse-splicing fitness of C82U A120C A145C C150U U176A
0.0173

Read off the recorded reverse-splicing fitness for A111C A120G A145G C150G C169G U176A
0.0101

Check the records and state reverse-splicing fitness for C82A A111G A120U A145G C150A C169U
0.00455

Please look at this variant and report its reverse-splicing fitness: A111C A120C A145C C150G U176G
0.00444

Give the measured reverse-splicing fitness for C82U A111U A120G A145U C169U
0.00798

Determine its reported reverse-splicing fitness: A111C A120G A145G C150G C169U U176G
0.00619

Return value of reverse-splicing fitness for input C82G A111C A120C C150U U176C , no commentary.
0.0226

Retrieve reverse-splicing fitness measured for C82A A111U A120G A145G C150A C169A U176A and print it.
0.0191

Respond only with reverse-splicing fitness recorded for C82U A120U A145C
0.153

For C82A A111U A120C A145U U176G , write its reverse-splicing fitness.
0.00733

// fetch reverse-splicing fitness given entry C82U A111U A120G C150A C169A U176A
0.0189

Give reported reverse-splicing fitness value for C82G A111G A120C A145U C150A U176G
0.00773

Give reverse-splicing fitness for the following variant: C82A A111U A120C C169U
0.0143

Check the records and state reverse-splicing fitness for C82U A120U A145C C150G U176G
0.00242

For the variant C82U A120C A145C C150A C169U U176A , give its measured reverse-splicing fitness value.
0.0146

Give reported reverse-splicing fitness value for C82A A120G A145G C150G C169U U176G
0.00741

Please report the measured reverse-splicing fitness for A111U A120C C150U U176G
0.0321

Note down reverse-splicing fitness recorded for A111C A120C A145C C150U C169A U176A
0.0107

Fill in reported reverse-splicing fitness for this entry: A120U C150A U176A
0.178

Give me measured reverse-splicing fitness, please, for this variant: C82G A111G A120G A145U C169U U176G
0.00384

Could you please provide reported reverse-splicing fitness for C82A A111G A120G C150U C169G U176A ? Thanks!
0.0166

Using known records, supply reverse-splicing fitness for C82U A145U C150A
0.0658

Identify measured reverse-splicing fitness corresponding to C82A A111U A145U C150A C169U
0.0108

For C82U A111G A120U A145U C150G C169G , write its reverse-splicing fitness.
0.00266

Please supply the value of reported reverse-splicing fitness for the item C82A A111U A120U A145C C150U C169G U176G
0.00248

Determine its reported reverse-splicing fitness: C82A A111G A145G C169G U176C
0.0288

Give reverse-splicing fitness for the following variant: C82U A111U A120C A145U C150U C169G U176C
0.0115

Tell me reverse-splicing fitness reported for C82G A111G A120G A145U C150A C169U
0.00794

Answer with the recorded reverse-splicing fitness of A111C A145G C150A C169G U176G only.
0.00728

Answer with reported reverse-splicing fitness of C82A A111G A120G A145C C150G C169A U176A
0.00923

In one line, give reported reverse-splicing fitness of the entry C82U A145C C150A C169A U176C .
0.00505

Report reverse-splicing fitness for C82G A120G A145U C150U C169A U176A
0.0161

Fill in reverse-splicing fitness for record C82A A111U A120G A145U C150U C169U U176C
0.0148

Provide one value: measured reverse-splicing fitness of C82A A120U A145G C150G
0.0192

Indicate the recorded reverse-splicing fitness value for this variant: C82A A111U A120U C150U
0.016

Specify measured reverse-splicing fitness for C82G A111U A120G A145C C150A U176C .
0.0103

Give the measured reverse-splicing fitness for C82G A111C A120C C150G C169A
0.00742

State its reverse-splicing fitness: C82G C150A C169G U176G
0.00539

Dear colleague, please send me the reported reverse-splicing fitness for C82G A111U A120G A145G C150G U176G when you can.
0.00601

Hello, please tell me recorded reverse-splicing fitness for this one: C82G A111G A120G A145U C169A
0.0118

Specify measured reverse-splicing fitness for C82G A111U A120U A145U C150U C169U U176A .
0.00325

Using the record for C82G A111G A120C A145C C150A C169G U176G , state its measured reverse-splicing fitness.
0.00633

Give recorded reverse-splicing fitness. A111C A145C C150G
0.246

Query reverse-splicing fitness for A111C A120G C150A C169U
0.0203

Output reverse-splicing fitness of C82A A120U A145G C150A C169A U176C
0.00397

Please report reverse-splicing fitness for the following variant: A111G A120C A145G C150U C169A
0.0158

State, in one line, measured reverse-splicing fitness of C82U A111C A120G C169G U176C
0.0209

For A120C A145G C150U C169G , write its reverse-splicing fitness.
0.0232

Supply measured reverse-splicing fitness of C82U A111G A120U C150A C169U in your reply.
0.00325

Please report the measured reverse-splicing fitness for C82U A120C C150U C169G
0.00713

Give me measured reverse-splicing fitness, please, for this variant: C82U A145C C150A C169G U176G
0.00485

Input C82A A111U A120G A145U C169G U176A , output reported reverse-splicing fitness.
0.0119

Indicate its recorded reverse-splicing fitness; the variant in question is C82U A120G A145C C150U U176C
0.00744

Kindly indicate its recorded reverse-splicing fitness. Item: C82A A120G A145U C169G U176A
0.0118

Identify reverse-splicing fitness associated with the variant C82U A111U A120G A145G C150G C169G U176G
0.00498

Provide measured reverse-splicing fitness value, entry: A111U A120U A145C C150G U176C
0.0148

Return reverse-splicing fitness for the following variant: C82U A111G A120C A145G C169U U176G
0.00401

Give the measured reverse-splicing fitness for C82G A145U C150A C169A
0.00972

// fetch reverse-splicing fitness given entry A111C A120U A145C C150U C169A U176C
0.00249

Using known records, supply reverse-splicing fitness for A111U A120C A145G C150G C169A U176C
0.0123

Please supply the value of reported reverse-splicing fitness for the item C82U A111G A120G A145G C150U
0.0132

State its reverse-splicing fitness: C82A A120G C150G C169A
0.00866

Answer with reported reverse-splicing fitness of A111C A120U A145C C150G C169G U176G
0.00227

Please indicate reverse-splicing fitness recorded for C82G A111C A120U A145U C150A U176G
0.00269

Let me know recorded reverse-splicing fitness for C82U A111G A120U A145U C150A U176C , thanks.
0.00416

Kindly indicate its recorded reverse-splicing fitness. Item: C82A A111C A120G A145C C169A
0.00659

Please report reverse-splicing fitness for the following variant: A111G A120U C150A C169G U176C
0.00454

Give a short answer stating reported reverse-splicing fitness for C82A A111C C150G C169G .
0.00723

Provide only the value of recorded reverse-splicing fitness for C82U A111U A145U C150G C169U U176A
0.00893

Please report reverse-splicing fitness for the following variant: A111G A145G C169G U176G
0.00638

Quote reverse-splicing fitness reported for C82G A111C A120G A145G C150G U176A please.
0.00732

Determine its reported reverse-splicing fitness: A111U A120G C150A C169A
0.015

Report reverse-splicing fitness for A120U A145G C150A
0.361

Answer with the recorded reverse-splicing fitness of C82G A111C A120G A145G C150U C169U only.
0.011

Item A111G A120U C150G C169G U176C : provide reverse-splicing fitness
0.00213
